# System: OVCAR-8
# TEST_DETAILS: NCI tumour cell line growth inhibition, 48 h
The source made the active and inactive calls. Cut-off read from the data, not from the text of the source: active = GI50 up to about 1.1 µM and inactive = higher.
Readings of GI50 for the listed compounds

Please look up its GI50: Clc1ccc(CSC2=NCCN2)cc1Cl 15.9 µM (inactive)

----------
# Test system: U-251
# TEST_DETAILS: NCI tumour cell line growth inhibition, 48 h
The source made the active and inactive calls. No stated cut-off is given here; in the data, active = GI50 up to about 1.1 µM and inactive = higher.
Readings of GI50 for the listed compounds

>  <COMPOUND>
CC1(C(=O)O)CCC[C@@]2(C)C1CC[C@@]1(C)c3cocc3CCC21 (some centres not stated)

>  <GI50>
97.7 µM (inactive)

$$$$
>  <COMPOUND>
COc1cc2c(cc1OC)C(CC(=O)NN=C(C)C)NCC2 (configuration not stated)

>  <GI50>
> 100 µM (inactive)

$$$$

Please look up its GI50: Cn1cnnc1Sc1c([N+](=O)[O-])ncn1C > 100 µM (inactive)

Please look up its GI50: NNc1nc2ccccc2c(=O)n1NC(=O)C(=O)Nc1cccc(C(F)(F)F)c1 > 100 µM (inactive)

Please look up its GI50: CO[C@@H]1C=C[C@@]23c4cc5c(cc4C(=O)O[C@H]2CN(C)[C@H]3C1)OCO5 > 100 µM (inactive)

Please look up its GI50: COC(=O)[C@]1(Cc2ccc3ccccc3c2)CCCCCCN1C(=O)c1ccccc1 > 26.7 µM (inactive)

Please look up its GI50: Cc1cc2nc3c(N)nn(CCCN(C)C)c3nc2cc1C 71.9 µM (inactive)

Please look up its GI50: NC1=NCCN1CC(=O)O [CYCLOCREATINE] > 1000 µM (inactive)

Please look up its GI50: NC(=O)c1cccc([N+](=O)[O-])c1 > 100 µM (inactive)

Please look up its GI50: O=[As](O)(O)c1ccc(NCc2ccccc2)cc1 > 100 µM (inactive)

Please look up its GI50: O=C1OC2C=CC1C1(CCOC1=O)C2 (configuration not stated) > 100 µM (inactive)

Please look up its GI50: C[C@H](NC(=O)C(C)(Cc1ccc(O)cn1)NC(=O)c1ccccc1)c1ccccc1 (some centres not stated) > 100 µM (inactive)
